Origin of measurements: ChEMBL document CHEMBL1961873

Biological target: Serine/threonine-protein kinase SIK2 (Homo sapiens) (UniProt Q9H0K1)
Sequence (Q9H0K1 whole entry, looked up): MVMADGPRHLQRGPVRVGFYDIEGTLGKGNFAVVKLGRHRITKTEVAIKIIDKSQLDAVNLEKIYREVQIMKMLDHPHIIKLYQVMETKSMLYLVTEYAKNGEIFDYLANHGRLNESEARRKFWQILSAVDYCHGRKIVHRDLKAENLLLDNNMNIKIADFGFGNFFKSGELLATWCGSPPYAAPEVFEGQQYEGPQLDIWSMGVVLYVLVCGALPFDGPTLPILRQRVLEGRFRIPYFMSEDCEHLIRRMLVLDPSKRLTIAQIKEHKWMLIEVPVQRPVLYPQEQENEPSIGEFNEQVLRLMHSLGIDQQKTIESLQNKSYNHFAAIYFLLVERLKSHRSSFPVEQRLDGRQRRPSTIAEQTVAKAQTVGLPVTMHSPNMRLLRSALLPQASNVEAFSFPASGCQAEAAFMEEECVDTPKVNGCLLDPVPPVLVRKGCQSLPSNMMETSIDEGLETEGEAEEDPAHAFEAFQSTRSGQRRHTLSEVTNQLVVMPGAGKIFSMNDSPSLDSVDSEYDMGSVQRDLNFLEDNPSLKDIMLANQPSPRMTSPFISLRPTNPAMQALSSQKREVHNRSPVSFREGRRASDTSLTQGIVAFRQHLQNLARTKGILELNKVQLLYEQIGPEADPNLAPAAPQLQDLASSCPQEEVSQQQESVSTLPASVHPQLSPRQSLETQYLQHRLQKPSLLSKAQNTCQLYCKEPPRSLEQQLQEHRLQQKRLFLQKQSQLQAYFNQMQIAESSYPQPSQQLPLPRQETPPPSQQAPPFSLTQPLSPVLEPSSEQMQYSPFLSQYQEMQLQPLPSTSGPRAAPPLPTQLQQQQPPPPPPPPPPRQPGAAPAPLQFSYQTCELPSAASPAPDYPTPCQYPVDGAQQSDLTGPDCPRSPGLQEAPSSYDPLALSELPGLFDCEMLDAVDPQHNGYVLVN
Settings: at 0.1 µM
Description: GSK_PKIS: SNF1LK2 (QIK) mean inhibition at 0.1 uM [Nanosyn]
QUANTITY NAME: inhibition
Put down the number, then write its unit next to it.

MOL SMILES	QUANTITY NAME	REPORTED VALUE
CS(=O)(=O)CCNCc1coc(-c2ccc3ncnc(Nc4ccc(OCc5ccccc5)cc4)c3c2)c1	inhibition	-0.18%
CCc1nn2ncccc2c1-c1ccnc(NC2CC2)n1	inhibition	0.42%

--- query ---
Q) Give Serine/threonine-protein kinase SIK2 (Homo sapiens) (UniProt Q9H0K1) inhibition for `CN1CCC(n2cnc(-c3ccc(F)cc3)c2-c2ccnc(N)n2)CC1`
A) 7.38%

====

Molecular target: Dual specificity tyrosine-phosphorylation-regulated kinase 1A (Homo sapiens) (UniProt Q13627)
Conditions: at 1 µM
Description: GSK_PKIS: DYRK1A mean inhibition at 1 uM [Nanosyn]
Listing of entries alongside the reported inhibition.
Supply the numeric figure in %, leaving out any unit text.

MOLECULE	inhibition [%]
CS(=O)(=O)CCNCc1coc(-c2ccc3ncnc(Nc4ccc(OCc5ccccc5)cc4)c3c2)c1	2.33
O=C(Nc1n[nH]c2cc(-c3ccc(F)cc3)ccc12)C1CC1	11
Fc1ccc(-c2cc(-c3c[nH]nc3-c3ccccn3)ccn2)cc1	5.69
COc1ccc2c(-c3ccnc(Nc4cccc(OC(F)(F)F)c4)n3)cnn2n1	60.8
CC(C)COC(=O)c1ccc2c(c1)/C(=C/Nc1ccc(S(N)(=O)=O)cc1)C(=O)N2	57
CCN1CCC(CC(=O)Nc2n[nH]c3nnc(-c4cccc(F)c4F)cc23)CC1	53.1
c1ccc(-c2nc3n(c2-c2ccc4c(c2)OCO4)CCC3)nc1	6.32
CC1=C(C(=O)Nc2cc(Cl)c3[nH]ncc3c2)C(c2ccc(C(F)(F)F)cc2)CC(=O)N1 (stereo not given)	2.44
CCc1nn2ncccc2c1-c1ccnc(NC2CC2)n1	4.71
Cc1ccc(O)cc1Nc1ccnc2cc(-c3ccccn3)ccc12	4.96

Q) Which inhibition is listed for `[O-][S+]1CCN(Cc2ccc(-c3ccc4ncnc(Nc5ccc(OCc6cccc(F)c6)c(Cl)c5)c4c3)o2)CC1` ?
A) 3.96

Q) Consider the molecule `Clc1ccc(-c2nn3ncccc3c2-c2ccnc(Nc3ccccc3)n2)cc1` and give its measured inhibition.
A) 5.74

Q) Data request, read-out inhibition, for `Cc1cccc(Nc2ncc(-c3ccccc3)o2)c1`
A) 4.26

Q) Given the molecule `COc1cc2ncn(-c3cc(OCc4ccccc4C(F)(F)F)c(C(=O)N(C)C)s3)c2cc1OC` , what is its reported inhibition?
A) 0.74

Q) Param item = `Cc1cccc2c1NC(=O)/C2=N\Nc1ccc(S(N)(=O)=O)cc1` ; retrieve measured inhibition.
A) 5.61

====

Molecular target: Tyrosine-protein kinase JAK1 (Homo sapiens);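 further: each value is a mean inhibition of JAK1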
Settings: at 1 µM
QUANTITY NAME: inhibition (%)
Give the number; % is assumed, so skip it.

MOL SMILES	MEASUREMENT UNITS	inhibition
Cc1ccc(O)cc1Nc1ccnc2cc(-c3ccccn3)ccc12	%	3.25
Fc1ccc(-c2nn3ncccc3c2-c2ccnc(Nc3ccc4c(c3)OCCO4)n2)cc1	%	2.04
c1ccc(COc2ccc(Nc3ncnc4ccc(-c5ccco5)cc34)cc2)cc1	%	2.21
COc1cc2c(cc1Nc1nc(Nc3ccsc3C(N)=O)c3cc[nH]c3n1)N(C(=O)CN(C)C)CCC2(C)C	%	2.78
COc1ccc(-c2cc3c(N)ncnc3o2)cc1	%	7.71
Cc1ccc2c(-c3ccnc(Nc4ccccc4)n3)c(-c3ccc(F)cc3)nn2n1	%	-5.84

Let us examine a further case.
Q) inhibition for `CCCN1CCC(c2ccc(Nc3nc(Nc4cc(F)ccc4C(N)=O)c4cc[nH]c4n3)c(OC)c2)CC1` ?
A) 20.8
